Data credit: paper PMC8003416

Target Or Test System: human phenylalanine hydroxylase (hPAH) (Homo sapiens)
Construct: Recombinant full-length wild-type (WT) hPAH was expressed in E. coli Top10 cells in fusion with a hexa-histidyl peptide; made in house; host or cells: E. coli Top10
Sequence (P00439 1-452): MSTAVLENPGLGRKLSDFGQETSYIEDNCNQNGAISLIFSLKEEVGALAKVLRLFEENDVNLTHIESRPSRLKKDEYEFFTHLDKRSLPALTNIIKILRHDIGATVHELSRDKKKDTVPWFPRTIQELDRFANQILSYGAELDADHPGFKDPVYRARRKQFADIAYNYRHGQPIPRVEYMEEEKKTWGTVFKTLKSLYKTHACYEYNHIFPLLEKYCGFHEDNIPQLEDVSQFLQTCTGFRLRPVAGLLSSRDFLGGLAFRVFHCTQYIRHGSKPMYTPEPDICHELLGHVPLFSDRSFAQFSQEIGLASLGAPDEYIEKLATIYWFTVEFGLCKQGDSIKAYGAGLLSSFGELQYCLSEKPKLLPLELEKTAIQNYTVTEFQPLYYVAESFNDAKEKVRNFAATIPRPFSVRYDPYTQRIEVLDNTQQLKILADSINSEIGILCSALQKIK
Method Description: Differential scanning fluorimetry (thermal denaturation)
Format: binding
Details: 100 μM compound vs 1% DMSO control; * S.D. < 0.01
Here the recorded ΔTm1 (regulatory domain) is given for each entry.
Readout Name: ΔTm1 (regulatory domain) (°C)

1. CCOC(=O)[C@H](Cc1ccccc1)NC(=O)c1c(O)c(=O)[nH]c2ccccc12 :: -3.9
2. O=C(CNC(=O)c1c(O)c(=O)[nH]c2ccc(OC(F)(F)F)cc12)OCc1ccccc1 :: 0.4
3. O=C(Nc1ccccc1)c1c(O)c(=O)[nH]c2ccc(OC(F)(F)F)cc12 :: -4.7
4. CCOC(=O)[C@H](Cc1ccccc1)NC(=O)c1c(O)c(=O)n(Cc2ccccc2)c2ccc(OC(F)(F)F)cc12 :: -5.6
